Molecular target: Recombinant human TDO comprising amino acids 19-407 (Homo sapiens (Human), UniProt P48775)
Sequence (P48775 19-406 limits assumed): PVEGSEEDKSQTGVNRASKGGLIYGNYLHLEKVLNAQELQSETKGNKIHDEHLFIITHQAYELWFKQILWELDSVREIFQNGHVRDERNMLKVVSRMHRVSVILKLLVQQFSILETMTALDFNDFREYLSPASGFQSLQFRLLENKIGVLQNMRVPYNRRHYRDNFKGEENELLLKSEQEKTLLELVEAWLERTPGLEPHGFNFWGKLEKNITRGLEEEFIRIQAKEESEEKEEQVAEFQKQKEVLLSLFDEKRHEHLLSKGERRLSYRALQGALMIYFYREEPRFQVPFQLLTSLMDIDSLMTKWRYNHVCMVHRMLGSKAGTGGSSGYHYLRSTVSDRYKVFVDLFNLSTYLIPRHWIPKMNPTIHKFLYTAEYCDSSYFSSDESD
Experiment: TDO2 enzymatic assay (TDO inhibitory activity)
Type: biochemical
Conditions: 15 nM enzyme, 200 μM L-tryptophan, pH7, 30 min pre-incubation, NFK quantified by LCMS; mean values if measured multiple times; read-out: hTDO activity (IC50 in nM)
Method: 2) Testing Compounds for TDO Inhibitory Activity in a TDO2 Enzymatic Assay: Recombinant human TDO comprising amino acids 19-407 with a N-terminal hexahistidine tag expressed in E. coli and purified to homogeneity is incubated at a final concentration of 15 nM in assay buffer consisting of 75 mM phosphate buffer at pH7 supplemented with 100 μM ascorbic acid, 50 U/ml Catalase, 0.01% BSA, and 0.01% Tween 20 (protocol modified from Seegers et al, JBS 2014). […]
measured attribute: log10 of IC50 (log10 of the value in nM)
// do not treat as linear: log10 of IC50, unit nM

INPUT: Data request, read-out log10 of IC50, for CC(C)CC1CCC(C(O)c2c(C3CC3)sc3cncn23)C1 (stereo not drawn)
OUTPUT: 3.30

INPUT: Any idea what its log10 of IC50 is? The compound is OC(Cc1c(Cl)cccc1Cl)c1c(C2CC2)sc2cncn12 (racemic)
OUTPUT: 2.66

INPUT: Requested field: log10 of IC50. Item: CC1(c2ccccc2)CCC(C(O)c2c(C3CC3)sc3cncn23)C1 (stereo not drawn)
OUTPUT: 3.11

INPUT: Which log10 of IC50 reading was recorded for the compound CC[C@H](C)c1sc2cncn2c1C(O)C1CCCCC1 (stereo partly drawn) ?
OUTPUT: 2.98

INPUT: For OC(CC1CCC1)c1c(C2CC2)sc2cncn12 (racemic) , what is its reported log10 of IC50?
OUTPUT: 2.84

INPUT: I am curious: what log10 of IC50 value has been reported for OC(c1cccc(Cl)c1)c1c(C2CC2)sc2cncn12 (racemic) ?
OUTPUT: 3.26

INPUT: Look up log10 of IC50: CC1CCCC1C(O)c1c(C(F)(F)F)sc2cncn12 (stereo not drawn)
OUTPUT: 2.27

INPUT: Reported log10 of IC50 for OC(c1c(C2CC2)sc2cncn12)C1CCCCCC1 (racemic) : what is it?
OUTPUT: 2.58
